Reference source: patent US9783531B2

- test.target: recombinant human GST-SYK (Homo sapiens, UniProt P43405)
- Construct: purchased Carna Biosciences 08-176
- run.description: Homogeneous Time-Resolved Fluorescence (HTRF) assay for the recombinant human Syk enzyme
- Format: biochemical
- experimental.parameters: recombinant human GST-SYK 5 pM, ATP 25 μM, read-out: rhSyk
attribute.measured: IC50 (nM)

P. Cc1cc(Nc2ncn(C3CCC3)n2)cc(-c2cnc([C@]3(O)CC[C@@H](C(=O)O)C(C)(C)C3)s2)c1 (single isomer, unassigned) [Example 2.25]
Q. Cc1cc(Nc2ncn(C(C)C)n2)cc(-c2cnc(C3(O)CCC3)s2)c1
R. Cc1cc(Nc2ncn(Cc3ccccc3)n2)cc(-c2cnc(C3(O)CCC3)s2)c1
S. CCCn1cnc(Nc2cc(C)cc(-c3cnc(C4(O)CCC4)s3)c2)n1
I'd appreciate it if you sorted the entries above by their IC50, lowest to highest. The response must list the labels following the requested ordering. P, Q, S, R

====

- test.target: recombinant human GST-SYK (Homo sapiens)
- run.description: Homogeneous Time-Resolved Fluorescence (HTRF) assay for the recombinant human Syk enzyme
- experimental.parameters: recombinant human GST-SYK 5 pM, ATP 25 μM, read-out: rhSyk
pIC50: −log10 of the molar value.
attribute.measured: pIC50

I. Cc1cc(Nc2cc(C)[nH]n2)cc(-c2cnc(C3(O)CCC3)s2)c1 [Example 2.5]
II. Cc1cc(Nc2ncn(C(C)C)n2)cc(-c2cnc([C@]3(O)CC[C@@H](C(=O)O)CC3)s2)c1 [Example 2.22]
III. Cc1cc(Nc2ncn(C(C)C)n2)cc(-c2cnc([C@]3(O)CC[C@@H](C(N)=O)CC3)s2)c1 [Example 2.23]
IV. Cc1cc(Nc2cc(C3CCC3)[nH]n2)cc(-c2cnc(C3(O)CCC3)s2)c1 [Example 2.7]
Sort key: pIC50. Order: high to low. Scope: items listed above. The response must list the labels following the requested ordering. II, III, IV, I

====

- test.target: recombinant human GST-SYK (Homo sapiens, UniProt P43405)
- run.description: Homogeneous Time-Resolved Fluorescence (HTRF) assay for the recombinant human Syk enzyme
- experimental.parameters: recombinant human GST-SYK 5 pM, ATP 25 μM, read-out: rhSyk
attribute.measured: IC50 (nM)

> print(dat)
                                   compound                               test.target  attribute.measured  measured
1  Cc1cc(Nc2ncn(C)n2)cc(-c2cnc(C3(O)CCC3)s2)c1  recombinant human GST-SYK (Homo sapiens, UniProt P43405)                IC50       188
2  CCn1cnc(Nc2cc(C)cc(-c3cnc(C4(O)CCC(C(=O)OC(C)(C)C)CC4)s3)c2)n1 (centres unmarked)  recombinant human GST-SYK (Homo sapiens, UniProt P43405)                IC50      1110
3  Cc1cc(Nc2ncn(C(=O)N(C)C)n2)cc(-c2cnc(C3(O)CCC3)s2)c1  recombinant human GST-SYK (Homo sapiens, UniProt P43405)                IC50      3860

a. Cc1cc(Nc2ncn(C3CCC3)n2)cc(-c2cnc([C@]3(O)CC[C@@H](C(=O)O)C(C)(C)C3)s2)c1 (single isomer, unassigned) [Example 2.24]
b. Cc1cc(Nc2ncn(C3CCCCC3)n2)cc(-c2cnc(C3(O)CCC3)s2)c1
c. CCn1cnc(Nc2cc(C)cc(-c3cnc(C4(O)CCC4)s3)c2)n1
d. Cc1cc(Nc2ncn(-c3ccccc3)n2)cc(-c2cnc(C3(O)CCC3)s2)c1
e. Cc1cc(Nc2n[nH]c(C)n2)cc(-c2cnc(C3(O)CCC3)s2)c1
Please put the entries in order of rising IC50. The response must list the labels following the requested ordering. a, c, b, d, e
